Experiment summary: NCI Yeast Anticancer Drug Screen. Data for the mec2-1 strain (AID 157)
Applied conditions: S. cerevisiae mec2-1 strain, at 50.0 µM, stronger effect = higher value
Compounds without any hit were thinned out: in the full panel of roughly 79,000, 15% have a hit. Where a SMILES comes first, the peptide text is derived from it. The star is where a group is joined. Myristoyl = CCCCCCCCCCCCCC(=O)*
Recorded endpoint: growth inhibition (%)
Give bare numbers, in %.

Below, each entry is followed by its recorded growth inhibition result.
Compound: CCOC(=O)C1=NC(c2ccccc2)(c2ccccc2)OC1=C(Cl)Cl
growth inhibition, %: -16.4

Compound: CCCCCCCCCCCCCC(=O)NCC(=O)NC(CO)C(=O)NC(CO)C(=O)NC(CCCCN)C(=O)NC(CO)C(=O)NC(CCCCN)C(=O)N1CCCC1C(=O)NC(CCCCN)C(=O)NC(CC(=O)O)C(N)=O (centres undefined) (Myristoyl-GSSKSKPKD-NH2; configuration not given here)
growth inhibition, %: -2.55

Compound: NSC(=S)NCc1ccco1
growth inhibition, %: -2.95

Compound: COc1cc2c(c3[nH]cc(C(=O)O)c(=O)c13)NC(=O)CS2
growth inhibition, %: -87.8

Compound: Cc1nc2cccc3ccc4cc5ccccc5c1c4c32
growth inhibition, %: 12.7

For every item below, please supply its growth inhibition.
1. Cc1ccc(S(=O)(=O)Nc2cc3c(cc2NC(=O)C(F)(F)F)-c2ccccc2C3)cc1
2. COc1ccc(OC)c(Cc2ccc(NC(C)=O)cc2)c1
3. Cc1ccc(SCC(OCn2cnc3c(Cl)nc(N)nc32)[C@H](C)F)cc1 (some centres undefined)
4. COc1cc(C2N3CCCN2CC3)cc(OC)c1OC (centres undefined)

Result:
1: -9; 2: -2.15; 3: 23.4; 4: 0.35
